- SUBJECT_OF_TEST: Serine/threonine-protein kinase 26 (Homo sapiens)
// n strictly below 2 °C in ΔTm; y otherwise

Worked examples follow.
> print(dat)
                            molecule.smiles  class.name
1  Cn1cc(/C=C2/C(=O)Nc3ccc(S(N)(=O)=O)cc32)c2ccccc21           y
2               Cc1cc2ncc(-c3ccccc3)nc2cc1C           n
3     CN1CCc2[nH]c(=S)c(C#N)c(-c3cccs3)c2C1           n

Shift focus to the following entry.
## Task Say whether Nc1nccc(-c2c(-c3ccc(F)cc3)ncn2C2CCNCC2)n1 shows ΔTm of 2 °C or more.
## Result n
